Each item that follows carries a reported IC50.
# ASSAYED SYSTEM: CBL-B (Homo sapiens)
# Construct: GST
# MEASUREMENT PROTOCOL: CBL-B TR-FRET IC50 screening (E1/E2 ubiquitination, Biotin-Ubiquitin, Anti GST-Tb donor / Streptavidin-d2 acceptor)
# Assay type: biochemical
# CONDITION INFO: CBL-B 10 nM final; 11-point titration from 100 uM; binned A-F; read-out: CBL-B TR-FRET activity IC50

Worked set:
INSERT INTO results (compound, measured_metric, reported_value) VALUES
  ('C[C@H]1CCCN([C@H](c2cc(C(F)(F)F)c3cn(-c4cccc([C@@H](c5nncn5C)C5CCC5)c4)c(=O)n3c2)C(F)(F)F)C1 (single isomer, unassigned)', 'IC50', '> 10000 nM'),
  ('Cn1cnnc1CC1(c2cccc(-n3cc4c(C(F)(F)F)cc(CN5CC[C@@H](O)C5)cn4c3=O)c2)COC1', 'IC50', '100 to 300 nM'),
  ('Cn1cnnc1[C@]1(c2cccc(-n3cc4c(C(F)(F)F)cc(CN5CCC(F)CC5)cn4c3=O)c2)C[C@@H](C)C1', 'IC50', '< 100 nM'),
  ('C[C@@H](Cc1nnc[nH]1)c1cccc(-n2cc3c(C(F)(F)F)cccn3c2=O)c1', 'IC50', '> 10000 nM'),
  ('C=C(C)C[C@@H](c1cccc(-n2cc3c(C(F)(F)F)cc(CN4CCC[C@H](C)C4)cn3c2=O)c1)c1nncn1C (single isomer, unassigned)', 'IC50', '< 100 nM'),
  ('C[C@H]1CCCN(Cc2cc(C(F)(F)F)c3cn(-c4cccc([C@@H](c5nc(C#N)cs5)C5CCC5)c4)c(=O)n3c2)C1 (single isomer, unassigned)', 'IC50', '> 10000 nM'),
  ('CN(C)C1CC=C(c2cc(C(F)(F)F)c3cn(-c4cccc(C5(Cc6nncn6C)COC5)c4)c(=O)n3c2)CC1 (centres unmarked)', 'IC50', '< 100 nM');

Turning now to a further compound:
Asked: Which IC50 value belongs to "Cn1cnnc1CC1(c2cccc(-n3cc4c(C(F)(F)F)cc(Br)cn4c3=O)c2)COC1" ?
Given back: 100 to 300 nM

---

Each item that follows carries a reported pIC50.
# ASSAYED SYSTEM: CBL-B (Homo sapiens, UniProt Q13191)
# Construct: GST
# Sequence (Q13191 whole entry): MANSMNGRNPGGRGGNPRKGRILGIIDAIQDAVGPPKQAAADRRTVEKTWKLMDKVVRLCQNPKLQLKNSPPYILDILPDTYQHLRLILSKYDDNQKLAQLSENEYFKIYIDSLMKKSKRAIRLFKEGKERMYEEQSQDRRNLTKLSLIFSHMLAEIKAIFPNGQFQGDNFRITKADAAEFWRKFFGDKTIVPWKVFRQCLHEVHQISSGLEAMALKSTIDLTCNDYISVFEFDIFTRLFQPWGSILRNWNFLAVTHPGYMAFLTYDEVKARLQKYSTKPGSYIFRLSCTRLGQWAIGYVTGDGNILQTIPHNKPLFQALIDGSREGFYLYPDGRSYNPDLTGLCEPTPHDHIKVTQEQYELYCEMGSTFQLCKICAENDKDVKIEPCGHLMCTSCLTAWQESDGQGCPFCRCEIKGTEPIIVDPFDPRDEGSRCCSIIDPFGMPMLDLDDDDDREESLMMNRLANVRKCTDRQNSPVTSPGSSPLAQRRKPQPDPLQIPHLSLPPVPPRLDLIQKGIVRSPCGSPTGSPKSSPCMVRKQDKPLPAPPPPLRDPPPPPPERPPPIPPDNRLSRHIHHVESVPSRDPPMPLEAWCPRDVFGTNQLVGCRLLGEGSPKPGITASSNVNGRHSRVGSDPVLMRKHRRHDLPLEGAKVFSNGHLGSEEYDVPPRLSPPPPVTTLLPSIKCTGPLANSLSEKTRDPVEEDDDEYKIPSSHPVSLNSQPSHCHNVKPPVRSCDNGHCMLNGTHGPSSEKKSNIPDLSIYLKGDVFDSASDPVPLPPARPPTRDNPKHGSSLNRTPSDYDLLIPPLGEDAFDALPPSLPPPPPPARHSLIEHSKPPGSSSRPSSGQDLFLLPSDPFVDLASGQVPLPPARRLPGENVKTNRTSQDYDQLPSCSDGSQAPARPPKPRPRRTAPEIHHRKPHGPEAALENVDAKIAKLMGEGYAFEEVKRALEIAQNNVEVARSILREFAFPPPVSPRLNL
# MEASUREMENT PROTOCOL: CBL-B TR-FRET IC50 screening (E1/E2 ubiquitination, Biotin-Ubiquitin, Anti GST-Tb donor / Streptavidin-d2 acceptor)
# Format: biochemical
# CONDITION INFO: CBL-B 10 nM final; 11-point titration from 100 uM; binned A-F; read-out: CBL-B TR-FRET activity IC50
pIC50: −log10 of the molar value.

INSERT INTO assay_data (compound, measured_metric, reported_value) VALUES
  ('Cn1cnnc1CC1(c2cccc(-n3cc4c(C(F)(F)F)cc(Cl)cn4c3=O)c2)COC1 [Compound 93]', 'pIC50', '6.52 to 7.00'),
  ('CO[C@H](C)CNCc1cc(C(F)(F)F)c2cn(-c3cccc(C4(Cc5nncn5C)COC4)c3)c(=O)n2c1 [Compound 266]', 'pIC50', '> 7.00'),
  ('Cn1cnnc1C1(c2cccc(-n3cc4c(C(F)(F)F)cc(CN5CCc6ncsc6C5)cn4c3=O)c2)CC2(CC2)C1 [Compound 307]', 'pIC50', '> 7.00'),
  ('Cn1cnnc1CC1(c2cccc(-n3cc4c(C(F)(F)F)cc(C(=O)O)cn4c3=O)c2)COC1 [Compound 20]', 'pIC50', '5.00 to 5.52'),
  ('C[C@H]1CCCN(Cc2cc(C(F)(F)F)c3cn(-c4cccc([C@@H](c5nncn5C)[C@H]5C[C@H](CO)C5)c4)c(=O)n3c2)C1 (single isomer, unassigned) [Compound 355]', 'pIC50', '< 5.00'),
  ('CN(C)C(=O)c1cc(C(F)(F)F)c2cn(-c3cccc(C4(Cc5nncn5C)COC4)c3)c(=O)n2c1 [Compound 31]', 'pIC50', '6.00 to 6.52');

Turning now to a further compound:
Asked: Which pIC50 value belongs to CC(c1cc(C(F)(F)F)c2cn(-c3cccc(C4(Cc5nncn5C(F)F)COC4)c3)c(=O)n2c1)N1CCC(F)CC1 (single isomer, unassigned) [Compound 96] ?
Given back: > 7.00
